Tested on: proteinase K
test: Proteolysis assay with proteinase K
Format: in vitro ADME
settings: Tritirachium album (Parengyodontium album); fitted half-life; 50 mM Tris, pH 8, 100 mM NaCl, room temperature, 50 M peptide, 0.1 g/ml proteinase K (µ lost in print); LC-ESI-MS, intact peptide relative to t=0, exponential decay fit; read-out: Proteinase K t 1/2
measure.name: half-life at 50 µM (min)
# output: bare number, implied unit min

Entry Ac-GAMGKDIQLARRIRGERA-NH2 [H3_118–135] : half-life at 50 µM on proteinase K = 12.2
